UniProt P25103: reported IC50 for various compounds.
Sequence (P25103 whole entry): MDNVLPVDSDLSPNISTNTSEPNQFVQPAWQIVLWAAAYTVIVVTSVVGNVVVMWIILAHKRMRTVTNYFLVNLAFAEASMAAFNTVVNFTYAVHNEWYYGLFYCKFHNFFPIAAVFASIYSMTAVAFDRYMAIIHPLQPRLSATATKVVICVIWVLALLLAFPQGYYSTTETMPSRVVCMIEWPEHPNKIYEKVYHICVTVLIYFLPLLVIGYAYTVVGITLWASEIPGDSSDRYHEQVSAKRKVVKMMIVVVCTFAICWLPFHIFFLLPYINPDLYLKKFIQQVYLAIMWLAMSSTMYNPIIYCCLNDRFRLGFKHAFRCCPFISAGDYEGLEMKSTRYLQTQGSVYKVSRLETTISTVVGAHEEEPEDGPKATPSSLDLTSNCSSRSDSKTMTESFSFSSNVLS
Numeric answer only, unit nM assumed.

Consider the following illustrative entries.
CC(=O)C1(c2ccccc2)CCN(CCCC2(c3ccc(Cl)c(Cl)c3)CCCN(C(=O)c3ccccc3)C2)CC1 (stereo not given) : 460
O=C(c1ccccc1)N1CCCC(CCCN2CCC3(CC2)CN(c2ccccc2)NC3=O)(c2ccc(Cl)c(Cl)c2)C1 (stereo not given) : 108
O=C(c1ccccc1)N1CCCC(CCCN2CCC(n3c(=O)[nH]c4ccccc43)CC2)(c2ccc(Cl)c(Cl)c2)C1 (stereo not given) : 379
CC(=O)C1(c2ccccc2)CCN(CCCC2(c3ccc(Cl)c(Cl)c3)CCC(=O)N(Cc3ccccc3)C2)CC1 (stereo not given) : 1030

Input line: Request body: readout IC50, system UniProt P25103, query O=C(c1ccccc1)N1CCCC(CCCN2CCC3(CCc4ccccc43)CC2)(c2ccc(Cl)c(Cl)c2)C1 (stereo not given) . Return the value.
Output line: 272

----------
- experimental-target: Substance-K receptor (Homo sapiens, UniProt P21452)
- Sequence (P21452 whole entry): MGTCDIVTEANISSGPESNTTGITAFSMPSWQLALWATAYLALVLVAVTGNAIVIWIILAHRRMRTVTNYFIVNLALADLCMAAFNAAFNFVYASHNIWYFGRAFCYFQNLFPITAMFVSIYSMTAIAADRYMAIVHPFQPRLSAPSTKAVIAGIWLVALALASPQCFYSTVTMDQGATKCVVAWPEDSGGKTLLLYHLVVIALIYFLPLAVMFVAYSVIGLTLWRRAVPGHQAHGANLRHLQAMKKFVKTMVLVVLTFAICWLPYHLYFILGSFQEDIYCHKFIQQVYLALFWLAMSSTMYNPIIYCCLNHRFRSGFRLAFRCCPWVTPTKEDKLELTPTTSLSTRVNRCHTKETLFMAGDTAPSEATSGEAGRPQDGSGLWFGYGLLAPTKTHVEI
Each entry below carries its reported IC50.
Number first, unit second.

Solved entries:
CC(=O)C1(c2ccccc2)CCN(CCCC2(c3ccc(Cl)c(Cl)c3)CCCN(C(=O)c3ccccc3)C2)CC1 (centres undefined) : 0.389 µM
CS(=O)(=O)N1CC2(CCN(CCCC3(c4ccc(Cl)c(Cl)c4)CCCN(C(=O)c4ccccc4)C3)CC2)c2ccccc21 (centres undefined) : 0.177 µM
CC(=O)C1(c2ccccc2)CCN(CCCC2(c3ccc(Cl)c(Cl)c3)CCC(=O)N(Cc3ccccc3)C2)CC1 (centres undefined) : 0.0039 µM

Below: the item to evaluate.
Input line: What does the data say about its IC50? Entry: O=C1CCC(CCCN2CCC3(CC2)CN(c2ccccc2)NC3=O)(c2ccc(Cl)c(Cl)c2)CN1Cc1ccccc1 (centres undefined)
Output line: 0.0025 µM

----------
- experimental-target: Neuromedin-K receptor (Homo sapiens, UniProt P29371)
- Sequence (P29371 whole entry): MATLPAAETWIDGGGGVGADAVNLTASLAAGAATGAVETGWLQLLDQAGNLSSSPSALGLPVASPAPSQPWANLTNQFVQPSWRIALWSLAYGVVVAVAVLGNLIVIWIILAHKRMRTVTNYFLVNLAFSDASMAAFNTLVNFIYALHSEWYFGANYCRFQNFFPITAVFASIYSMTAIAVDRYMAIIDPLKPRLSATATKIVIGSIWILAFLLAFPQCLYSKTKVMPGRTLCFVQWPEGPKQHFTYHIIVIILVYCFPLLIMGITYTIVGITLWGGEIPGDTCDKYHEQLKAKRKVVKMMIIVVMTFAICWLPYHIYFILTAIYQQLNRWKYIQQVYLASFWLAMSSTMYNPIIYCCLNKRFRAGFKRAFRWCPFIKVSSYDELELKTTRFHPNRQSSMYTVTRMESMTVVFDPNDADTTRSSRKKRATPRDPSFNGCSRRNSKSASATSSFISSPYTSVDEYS
- experimental-details: Compound was evaluated for affinity towards human Neurokinin NK3 receptor
So basically: is IC50 under 0.008 µM? Then rule met. Not under? Then rule not met.

These solved cases illustrate the format of a correct answer.
CC(=O)C1(c2ccccc2)CCN(CCCC2(c3ccc(Cl)c(Cl)c3)CCCN(C(=O)c3ccccc3)C2)CC1 (stereo unspecified) : rule met
CS(=O)(=O)N1CC2(CCN(CCCC3(c4ccc(Cl)c(Cl)c4)CCCN(C(=O)c4ccccc4)C3)CC2)c2ccccc21 (stereo unspecified) : rule met
O=C1CCC(CCCN2CCC3(CC2)CN(c2ccccc2)NC3=O)(c2ccc(Cl)c(Cl)c2)CN1Cc1ccccc1 (stereo unspecified) : rule not met

Input line: Quick check: does CC(=O)C1(c2ccccc2)CCN(CCCC2(c3ccc(Cl)c(Cl)c3)CCC(=O)N(Cc3ccccc3)C2)CC1 (stereo unspecified) have IC50 under 0.008 µM?
Output line: rule not met

Input line: Then what about the molecule CS(=O)(=O)N1CC2(CCN(CCCC3(c4ccc(Cl)c(Cl)c4)CCC(=O)N(Cc4ccccc4)C3)CC2)c2ccccc21 (stereo unspecified) ?
Output line: rule not met

Sourced from ChEMBL document CHEMBL1130818
